Data origin, for the record: ChEMBL document CHEMBL1126778

# Test system: Rattus norvegicus
# Protocol text: Acquisition time in Scopolamine induced avoidance test (performed in rat) for antagonistic activity after p.o. administration of 5 mg/kg
# Format: functional
# Measurement context: route oral
Recorded Acquisition time values for a group of compounds are listed next.
Experimental endpoint: Acquisition time (s)

[[record]]
compound = "CCCN1C(=O)N2C[C@@H](CC)N=C2c2[nH]c(C34CC5CC(CC3C5)C4)nc21"
result_value = 14.4

[[record]]
compound = "Cn1c(=O)c2c(ncn2C)n(C)c1=O"
result_value = 11.5

[[record]]
compound = "CCCn1c(=O)c2[nH]c(C3CCCC3)nc2n(CCC)c1=S"
result_value = 8.5

[[record]]
compound = "CCCn1c(=O)c2nc(C34CC5CC(CC3C5)C4)[nH]c2n(CCc2ccc(N)cc2)c1=O"
result_value = 11.9

[[record]]
compound = "CCCn1c(=O)c2nc(C3CCCC3)[nH]c2n(CCc2ccc(NC(=O)C(C)C)cc2)c1=O"
result_value = 11.9

[[record]]
compound = "CCCN1C(=O)N2C[C@H](CC)N=C2c2[nH]c(C34CC5CC(CC3C5)C4)nc21"
result_value = 14

[[record]]
compound = "CCCN1C(=O)N2CC(CC)N=C2c2[nH]c(C34CC5CC(CC3C5)C4)nc21 (racemic)"
result_value = 22.5


* * *

Recorded Retention time values for a group of compounds are listed next.
# Tested on: Rattus norvegicus
# Protocol text: Retention time in Scopolamine induced avoidance test (performed in rat) for antagonistic activity after peroral administration of 0.02 mg/kg
# Assay type: functional, organism-based
# Design: dose 0.02 mg/kg
Experimental endpoint: Retention time (s)

[[record]]
item_smiles = "CCCn1c(=O)c2[nH]c(C3CCCC3)nc2n(CCC)c1=S"
experimental_endpoint = "Retention time"
result_value = 19

[[record]]
item_smiles = "CCCn1c(=O)c2nc(C(C3CC3)C3CC3)[nH]c2n(CCC)c1=O"
experimental_endpoint = "Retention time"
result_value = 48.8

[[record]]
item_smiles = "CC(C)Cn1c(=O)n(C)c(=O)c2[nH]c(C(C3CC3)C3CC3)nc21"
experimental_endpoint = "Retention time"
result_value = 17.6

[[record]]
item_smiles = "CCCn1c(=O)c2nc(C(C3CC3)C3CC3)[nH]c2n(CCC)c1=S"
experimental_endpoint = "Retention time"
result_value = 115

[[record]]
item_smiles = "CCCn1c(=O)c2nc(C34CC5CC(CC3C5)C4)[nH]c2n(CCC)c1=S"
experimental_endpoint = "Retention time"
result_value = 129

[[record]]
item_smiles = "CCCn1c(=O)c2nc(C3CCCC3)[nH]c2n(CCc2ccc(N)cc2)c1=O"
experimental_endpoint = "Retention time"
result_value = 151


* * *

Recorded Retention time values for a group of compounds are listed next.
# Tested on: Mus musculus
# Protocol text: Retention time in (R)-PIA) induced avoidance test (performed in mice) for antagonistic activity after peroral administration of 0.08 mg/kg
# Format: functional, organism-based
# Design: dose 0.08 mg/kg
Experimental endpoint: Retention time (s)

[[record]]
item_smiles = "CCCN1C(=O)N2C[C@@H](CC)N=C2c2[nH]c(C34CC5CC(CC3C5)C4)nc21"
experimental_endpoint = "Retention time"
units_symbol = "s"
result_value = 156

[[record]]
item_smiles = "CCCn1c(=O)c2nc(C34CC5CC(CC(C5)C3)C4)[nH]c2n(CCC)c1=O"
experimental_endpoint = "Retention time"
units_symbol = "s"
result_value = 122

[[record]]
item_smiles = "CCCn1c(=O)c2nc(C(C3CC3)C3CC3)[nH]c2n(CCC)c1=S"
experimental_endpoint = "Retention time"
units_symbol = "s"
result_value = 97.5

[[record]]
item_smiles = "Cn1c(=O)c2[nH]cnc2n(C)c1=O"
experimental_endpoint = "Retention time"
units_symbol = "s"
result_value = 85.4


* * *

# System: Rattus norvegicus
# Protocol text: Retention time in Scopolamine induced avoidance test (performed in rat) for antagonistic activity after p.o. administration of 0.31 mg/kg
# Type: functional, organism-based
# Parameters: dose 0.31 mg/kg
Experimental endpoint: Retention time (s)

[[record]]
compound = "Cn1c(=O)c2c(ncn2C)n(C)c1=O [CAFFEINE]"
result_value = 14.9

[[record]]
compound = "CCCn1c(=O)c2nc(C34CC5CC(CC3C5)C4)[nH]c2n(CCC)c1=S"
result_value = 113

[[record]]
compound = "CCCn1c(=O)c2nc(C(C3CC3)C3CC3)[nH]c2n(CCC)c1=S"
result_value = 59.1

[[record]]
compound = "CCCn1c(=O)c2c(nc(/C=C/c3ccc(OC)c(OC)c3)n2C)n(CCC)c1=O"
result_value = 12.9

[[record]]
compound = "CCCn1c(=O)c2[nH]c(C3CCCC3)nc2n(CCC)c1=S"
result_value = 25.8

[[record]]
compound = "CCCn1c(=O)c2nc(C3CCCC3)[nH]c2n(CCc2ccc(NC(C)=O)cc2)c1=O"
result_value = 130

[[record]]
compound = "CCCn1c(=O)c2nc(C3CCCC3)[nH]c2n(CCc2ccc(NC(=O)C(C)C)cc2)c1=O"
result_value = 18.6

[[record]]
compound = "CCCN1C(=O)N2CC(CC)N=C2c2[nH]c(C34CC5CC(CC3C5)C4)nc21 (racemic)"
result_value = 221

[[record]]
compound = "CCCn1c(=O)c2nc(C3CCC(=O)C3)[nH]c2n(CCc2ccc(N)cc2)c1=O (stereo not drawn)"
result_value = 109

[[record]]
compound = "CCCn1c(=O)c2nc(C34CC5CC(CC3C5)C4)[nH]c2n(CCc2ccc(N)cc2)c1=O"
result_value = 95.9

[[record]]
compound = "Cn1c(=O)c2[nH]cnc2n(C)c1=O"
result_value = 31.2

[[record]]
compound = "CCCn1c(=O)c2nc(C3CC4CCCC4C3)[nH]c2n(CCC)c1=O (stereo not drawn)"
result_value = 29.6

[[record]]
compound = "CCCn1c(=O)c2nc(C34CC5CC(CC(C5)C3)C4)[nH]c2n(CCC)c1=O"
result_value = 21.3

[[record]]
compound = "CCCn1c(=O)c2nc(C(C3CC3)C3CC3)[nH]c2n(CCC)c1=O"
result_value = 218

[[record]]
compound = "CCCN1C(=O)N2C[C@H](CC)N=C2c2[nH]c(C34CC5CC(CC3C5)C4)nc21"
result_value = 81.3

[[record]]
compound = "CCCN1C(=O)N2C[C@@H](CC)N=C2c2[nH]c(C34CC5CC(CC3C5)C4)nc21"
result_value = 74.1

[[record]]
compound = "CCCn1c(=O)c2nc(C3CCCC3)[nH]c2n(CCc2ccc(N)cc2)c1=O"
result_value = 255

[[record]]
compound = "COc1cc(/C=C/c2nc3c(c(=O)n(C)c(=O)n3C)n2C)cc(OC)c1OC"
result_value = 36.3


* * *

# System name: Adenosine receptor A1, Rattus norvegicus (UniProt P25099)
# Sequence (P25099 whole entry, looked up): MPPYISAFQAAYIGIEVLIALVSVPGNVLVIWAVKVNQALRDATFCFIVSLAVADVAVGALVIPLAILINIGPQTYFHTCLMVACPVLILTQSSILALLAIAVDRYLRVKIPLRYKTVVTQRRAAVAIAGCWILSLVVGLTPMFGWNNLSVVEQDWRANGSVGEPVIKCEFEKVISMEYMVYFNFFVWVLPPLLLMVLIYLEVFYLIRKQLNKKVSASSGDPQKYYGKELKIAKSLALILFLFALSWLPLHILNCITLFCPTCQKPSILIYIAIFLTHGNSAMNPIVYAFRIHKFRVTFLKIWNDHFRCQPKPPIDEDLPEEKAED
pKi: −log10 of the molar value.
Experimental endpoint: pKi

[[record]]
item_smiles = "CCCn1c(=O)c2[nH]c(C3CCCC3)nc2n(CCc2ccc(N)cc2)c1=O"
result_value = 9.64


* * *

# Tested on: Rattus norvegicus
# Protocol text: Retention time in Scopolamine induced avoidance test (performed in rat) for antagonistic activity after p.o. administration of 0.08 mg/kg
# Type: functional, organism-based
# Set-up: dose 0.08 mg/kg
Define the label as y when Retention time is strictly less than 30 s and as n in all remaining cases.

[[record]]
molecule = "CCCn1c(=O)c2nc(C3CCCC3)[nH]c2n(CCc2ccc(N)cc2)c1=O"
assigned_category = "n"

[[record]]
molecule = "CCCN1C(=O)N2C[C@H](CC)N=C2c2[nH]c(C34CC5CC(CC3C5)C4)nc21"
assigned_category = "n"

[[record]]
molecule = "CCCn1c(=O)c2[nH]c(C3CCCC3)nc2n(CCC)c1=S"
assigned_category = "n"

[[record]]
molecule = "CCCn1c(=O)c2nc(C34CC5CC(CC3C5)C4)[nH]c2n(CCC)c1=S"
assigned_category = "n"

[[record]]
molecule = "CC(C)Cn1c(=O)n(C)c(=O)c2[nH]c(C(C3CC3)C3CC3)nc21"
assigned_category = "y"

[[record]]
molecule = "COc1cc(/C=C/c2nc3c(c(=O)n(C)c(=O)n3C)n2C)cc(OC)c1OC"
assigned_category = "y"

[[record]]
molecule = "CCCn1c(=O)c2nc(C34CC5CC(CC(C5)C3)C4)[nH]c2n(CCC)c1=O"
assigned_category = "n"

[[record]]
molecule = "CCCN1C(=O)N2CC(CC)N=C2c2[nH]c(C34CC5CC(CC3C5)C4)nc21 (racemic)"
assigned_category = "n"

[[record]]
molecule = "CCCN1C(=O)N2C[C@@H](CC)N=C2c2[nH]c(C34CC5CC(CC3C5)C4)nc21"
assigned_category = "y"

[[record]]
molecule = "CCCn1c(=O)c2nc(C(C3CC3)C3CC3)[nH]c2n(CCC)c1=S"
assigned_category = "y"

[[record]]
molecule = "CCCn1c(=O)c2nc(C3CCCC3)[nH]c2n(CCc2ccc(NC(=O)C(C)C)cc2)c1=O"
assigned_category = "y"

[[record]]
molecule = "CCCn1c(=O)c2nc(C3CCCC3)[nH]c2n(CCc2ccc(NC(C)=O)cc2)c1=O"
assigned_category = "n"

[[record]]
molecule = "CCCn1c(=O)c2nc(C3CCC(=O)C3)[nH]c2n(CCc2ccc(N)cc2)c1=O (configuration not stated)"
assigned_category = "n"

[[record]]
molecule = "CCCn1c(=O)c2c(nc(/C=C/c3ccc(OC)c(OC)c3)n2C)n(CCC)c1=O"
assigned_category = "n"

[[record]]
molecule = "CCCn1c(=O)c2nc(C34CC5CC(CC3C5)C4)[nH]c2n(CCc2ccc(N)cc2)c1=O"
assigned_category = "y"

[[record]]
molecule = "CCCn1c(=O)c2nc(C(C3CC3)C3CC3)[nH]c2n(CCC)c1=O"
assigned_category = "n"

